assay: self-splicing fitness, log relative to wild type (ln ratio); higher = more splicing; Tetrahymena group I intron in knt gene, E. coli kanamycin selection, DiMSum; sequences stand for … in CUCUCU…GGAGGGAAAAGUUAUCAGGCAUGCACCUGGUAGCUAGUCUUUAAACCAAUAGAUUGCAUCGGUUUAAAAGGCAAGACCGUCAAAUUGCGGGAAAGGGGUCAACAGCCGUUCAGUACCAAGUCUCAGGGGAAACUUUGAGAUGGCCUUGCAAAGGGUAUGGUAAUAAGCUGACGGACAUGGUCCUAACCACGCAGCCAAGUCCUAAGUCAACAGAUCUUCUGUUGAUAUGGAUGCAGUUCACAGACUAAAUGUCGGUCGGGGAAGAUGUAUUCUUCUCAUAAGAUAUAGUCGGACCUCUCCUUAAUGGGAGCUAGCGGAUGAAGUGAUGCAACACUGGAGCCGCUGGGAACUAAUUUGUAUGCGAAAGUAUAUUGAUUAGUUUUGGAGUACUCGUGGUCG; conditions: 37 °C;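 also: selection with 25 µg/mL kanamycin versus none on LB agar overnight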
Reported self-splicing fitness (ln) values for the following sequences.
Give the figure only, with no unit attached.

• UCGCAGCAAUAUUACGACCA = -1.07
• UGUAAGCAAUAUUACGGAUU = -1.09
• AAUCAGCAAUAUUACGAGGA = -1.23
• UCAUAGCAAUAUUACGAGCU = -2.72
• UAACAGCAAUAUUACGCGGC = -2.65

Q: Reported self-splicing fitness (ln) for CUCGAGCAAUAUUACGGGGA : what is it?
Result: -1.17

Q: Reported self-splicing fitness (ln) for AAACAGCAAUAUUACGGCUA : what is it?
Result: -0.0695

Q: Reported self-splicing fitness (ln) for CCGGAGCAAUAUUACGAUUG : what is it?
Result: 0.132

Q: Reported self-splicing fitness (ln) for GAUUAGCAAUAUUACGGGGA : what is it?
Result: -2.71

Q: Reported self-splicing fitness (ln) for UAGUAGCAAUAUUACGACUC : what is it?
Result: 0.405

Q: Reported self-splicing fitness (ln) for GGGCAGCAAUAUUACGACAG : what is it?
Result: -0.948

Reference source: the supplement of paper PMC7877785
